# TEST NAME: Single-dose pharmacokinetics in SD rats
# Type: in vivo, SD rat
# TEST CONDITIONS: male, SD, rat, plasma, sc, 10 mg/kg
Peptide text beside a SMILES is read from it.
MEASURED PROPERTY: AUC(0-t) (ng·h/mL)
# unit: ng·h/mL | format: bare number

// AUC(0-t) lookup, key: CC(C)[C@@H](NC(=O)[C@H](N)Cc1ccc(O)cc1)C(=O)N[C@H](CC(=O)O)C(=O)N[C@H](CCCCN)C(=O)N[C@H](CCCNC(=N)N)C(=O)O [FC-12738, (D-Tyr)-(D-Val)-(D-Asp)-(D-Lys)-(D-Arg)] (HELM PEPTIDE1{[dY].[dV].[dD].[dK].[dR]}$$$$V2.0)
13000

----------
# TEST NAME: Single rising dose pharmacokinetics in beagle dogs
# Format: in vivo, beagle dog
# TEST CONDITIONS: male, beagle, dog, plasma, sc, 1 mg/kg
Peptide text beside a SMILES is read from it.
MEASURED PROPERTY: half-life
Write the figure, then the unit, nothing else.

// half-life lookup, key: CC(C)[C@@H](NC(=O)[C@H](N)Cc1ccc(O)cc1)C(=O)N[C@H](CC(=O)O)C(=O)N[C@H](CCCCN)C(=O)N[C@H](CCCNC(=N)N)C(=O)O [FC-12738, (D-Tyr)-(D-Val)-(D-Asp)-(D-Lys)-(D-Arg)] (HELM PEPTIDE1{[dY].[dV].[dD].[dK].[dR]}$$$$V2.0)
57.4 min

----------
# TEST NAME: Tissue distribution in SD rats after single subcutaneous injection
# Assay type: in vivo, SD rat
# TEST CONDITIONS: male, SD, rat, spleen, sc, 10 mg/kg
Peptide text beside a SMILES is read from it.
MEASURED PROPERTY: tissue level at time at 8 h (ng/g)
# unit: ng/g | format: bare number

// tissue level at time at 8 h lookup, key: CC(C)[C@@H](NC(=O)[C@H](N)Cc1ccc(O)cc1)C(=O)N[C@H](CC(=O)O)C(=O)N[C@H](CCCCN)C(=O)N[C@H](CCCNC(=N)N)C(=O)O [FC-12738, (D-Tyr)-(D-Val)-(D-Asp)-(D-Lys)-(D-Arg)] (HELM PEPTIDE1{[dY].[dV].[dD].[dK].[dR]}$$$$V2.0)
239

----------
# TEST NAME: In vitro protein binding, rapid equilibrium dialysis
# Assay type: in vitro ADME
# TEST CONDITIONS: SD, rat, plasma
Peptide text beside a SMILES is read from it.
MEASURED PROPERTY: fraction unbound at 6 h, 0.2 µM
Form field (numeric): enter value without unit.

// fraction unbound at 6 h, 0.2 µM lookup, key: CC(C)[C@@H](NC(=O)[C@H](N)Cc1ccc(O)cc1)C(=O)N[C@H](CC(=O)O)C(=O)N[C@H](CCCCN)C(=O)N[C@H](CCCNC(=N)N)C(=O)O [FC-12738, (D-Tyr)-(D-Val)-(D-Asp)-(D-Lys)-(D-Arg)] (HELM PEPTIDE1{[dY].[dV].[dD].[dK].[dR]}$$$$V2.0)
0.482

----------
# TEST NAME: In vitro blood to plasma partitioning
# Type: in vitro ADME, rat
# TEST CONDITIONS: rat, whole blood
Peptide text beside a SMILES is read from it.
MEASURED PROPERTY: tissue to tissue ratio at 1 h, 10 µM
Form field (numeric): enter value without unit.

// tissue to tissue ratio at 1 h, 10 µM lookup, key: CC(C)[C@@H](NC(=O)[C@H](N)Cc1ccc(O)cc1)C(=O)N[C@H](CC(=O)O)C(=O)N[C@H](CCCCN)C(=O)N[C@H](CCCNC(=N)N)C(=O)O [FC-12738, (D-Tyr)-(D-Val)-(D-Asp)-(D-Lys)-(D-Arg)] (HELM PEPTIDE1{[dY].[dV].[dD].[dK].[dR]}$$$$V2.0)
0.47
